Reference source for all entries: the supplement of paper PMC8371130

Tested on: HL-1
Assay Text: relative cell viability (CellTiter-Glo) vs DMSO control (% of DMSO control); higher = more viable cells
Test Parameters: oxygen condition: normoxia 72 h; 40 nM
Where a name gives a salt, the structure may show the parent alone.
Cut-off 100 on relative cell viability: below means yes, at or above means no.

IN: Please let me know if NCCC(O)(P(=O)(O)O)P(=O)(O)O [Pamidronate Disodium] shows relative cell viability below 100.
OUT: no

IN: Please let me know if COc1cc2/c(=N/c3ccc(Br)cc3F)nc[nH]c2cc1OCC1CCN(C)CC1 shows relative cell viability below 100.
OUT: no

IN: Please let me know if COC(=O)C1=C(C)NC(C)=C(C(=O)OC2CCCN(Cc3ccccc3)C2)C1c1cccc([N+](=O)[O-])c1 (stereo not drawn) [Benidipine hydrochloride] shows relative cell viability below 100.
OUT: no

IN: Please let me know if Cc1nc(Nc2ncc(C(=O)Nc3c(C)cccc3Cl)s2)cc(N2CCN(CCO)CC2)n1 shows relative cell viability below 100.
OUT: yes

IN: Please let me know if CC[C@H](C)[C@H](N)C1=N[C@H](C(=O)N[C@@H](CC(C)C)C(=O)N[C@H](CCC(=O)[O-])C(=O)N[C@H](C(=O)N[C@H]2CCCCNC(=O)[C@H](CC(N)=O)NC(=O)[C@@H](CC(=O)[O-])NC(=O)[C@H](Cc3cnc[nH]3)NC(=O)[C@@H](Cc3ccccc3)NC(=O)[C@H]([C@@H](C)CC)NC(=O)[C@@H](CCCN)NC2=O)[C@@H](C)CC)CS1.[Zn+2] shows relative cell viability below 100.
OUT: no

IN: Please let me know if COc1cc(C(=O)NC2CCCNC2)cc(OC)c1OC (stereo not drawn) [Troxipide] shows relative cell viability below 100.
OUT: no

----------
Tested on: HL-1
Assay Text: relative cell viability (CellTiter-Glo) vs DMSO control (% of DMSO control); higher = more viable cells
Test Parameters: oxygen condition: hypoxia 48 h (1% O2) + reoxygenation 24 h; 40 nM
Cut-off 100 on relative cell viability: below means Fulfilled, at or above means Not fulfilled.

IN: Please let me know if COc1cc2nccc(Oc3ccc(NC(=O)C4(C(=O)Nc5ccc(F)cc5)CC4)cc3)c2cc1OC shows relative cell viability below 100.
OUT: Not fulfilled

IN: Please let me know if O=C(Nc1ccc([N+](=O)[O-])cc1Cl)c1cc(Cl)ccc1O [Niclosamide] shows relative cell viability below 100.
OUT: Fulfilled

IN: Please let me know if Nc1ncn([C@@H]2O[C@H](CO)[C@@H](O)[C@H]2O)c(=O)n1 [Azacitidine] shows relative cell viability below 100.
OUT: Not fulfilled

IN: Please let me know if CC(=O)O[C@H]1C(=O)[C@@]2(C)[C@H]([C@H](OC(=O)c3ccccc3)[C@]3(O)C[C@H](OC(=O)[C@H](O)[C@@H](NC(=O)c4ccccc4)c4ccccc4)C(C)=C1C3(C)C)[C@]1(OC(C)=O)CO[C@@H]1C[C@@H]2O [Paclitaxel] shows relative cell viability below 100.
OUT: Fulfilled

----------
Test system: HL-1
Assay Text: relative cell viability (CellTiter-Glo) vs DMSO control (% of DMSO control); higher = more viable cells
Test Parameters: oxygen condition: hypoxia 48 h (1% O2) + reoxygenation 24 h; 5000 nM
Structures can show the parent of a compound that is named as a salt.
Give measured relative cell viability for each item. Keep answers brief.
Give a plain numeric answer without units written out.

The recorded relative cell viability for entry COc1ccccc1N1CCN(CC(O)COc2cccc3ccccc23)CC1 (stereo unspecified) [Naftopidil] equals 101

The recorded relative cell viability for entry NC(=O)N1c2ccccc2C=Cc2ccccc21 [Carbamazepine] equals 106

The recorded relative cell viability for entry CCCNC(C)C(=O)Nc1c(C)csc1C(=O)OC (stereo unspecified) [Articaine HCl] equals 105

The recorded relative cell viability for entry O=C(O)C1=CO[C@@H](O[C@@H]2O[C@H](CO)[C@@H](O)[C@H](O)[C@H]2O)[C@@H]2C(CO)=CC[C@H]12 [Geniposidic acid] equals 112

The recorded relative cell viability for entry NCCc1c[nH]cn1 [Histamine Phosphate] equals 108

The recorded relative cell viability for entry C[C@]12CC[C@@H]3c4ccc(O)cc4CC[C@H]3[C@@H]1C[C@@H](O)[C@@H]2O [Estriol] equals 103

----------
System: HL-1
Assay Text: relative cell viability (CellTiter-Glo) vs DMSO control (% of DMSO control); higher = more viable cells
Test Parameters: oxygen condition: normoxia 72 h; 5000 nM
Counter-ions that a name gives are not always drawn.
Observable: relative cell viability
Give a plain numeric answer without units written out.

The recorded relative cell viability for entry Cc1cc2c(cc1S(N)(=O)=O)S(=O)(=O)CCC2 equals 112

The recorded relative cell viability for entry COc1ccc2cc1Oc1ccc(cc1)C[C@H]1c3c(cc4c(c3Oc3cc5c(cc3OC)CCN(C)[C@@H]5C2)OCO4)CCN1C equals 11.3

The recorded relative cell viability for entry CCC[C@@H]1C[C@@H](C(=O)N[C@@H]([C@H]2O[C@H](SC)[C@H](O)[C@@H](O)[C@H]2O)[C@@H](C)O)N(C)C1 [Lincomycin hydrochloride] equals 97

The recorded relative cell viability for entry CCCS(=O)(=O)Nc1ccc(F)c(C(=O)c2c[nH]c3ncc(-c4ccc(Cl)cc4)cc23)c1F equals 118

----------
System: HL-1
Assay Text: relative cell viability (CellTiter-Glo) vs DMSO control (% of DMSO control); higher = more viable cells
Test Parameters: oxygen condition: normoxia 72 h; 200 nM
Where a name gives a salt, the structure may show the parent alone.
Give measured relative cell viability for each item. Keep answers brief.
Give a plain numeric answer without units written out.

The recorded relative cell viability for entry CC12CC3CC(C)(C1)CC(N)(C3)C2 [Memantine HCl] equals 101

The recorded relative cell viability for entry CN1C[C@@H]2C[C@H]1CN2c1cc2c(cc1F)c(=O)c(C(=O)O)cn2C1CC1 [Danofloxacin Mesylate] equals 101

The recorded relative cell viability for entry CCCCC(=O)O[C@H]1CC[C@H]2[C@@H]3CCc4cc(O)ccc4[C@H]3CC[C@]12C [Estradiol valerate] equals 103

----------
Tested on: HL-1
Assay Text: relative cell viability (CellTiter-Glo) vs DMSO control (% of DMSO control); higher = more viable cells
Test Parameters: oxygen condition: normoxia 72 h; 1000 nM
Counter-ions that a name gives are not always drawn.
Observable: relative cell viability
Give a plain numeric answer without units written out.

The recorded relative cell viability for entry CN(C)CCN(Cc1cccs1)c1ccccn1 [Methapyrilene HCl] equals 111

The recorded relative cell viability for entry N[C@@H](CSCCCO)C(=O)O equals 104

The recorded relative cell viability for entry Cc1ncc(C[n+]2csc(CCO)c2C)c(N)n1 [Thiamine HCl] equals 106

The recorded relative cell viability for entry CCN(CC)CCOC(=O)C(c1ccccc1)c1ccccc1 [Adiphenine HCl] equals 101

The recorded relative cell viability for entry N=C(N)NC(=O)c1nc(Cl)c(N)nc1N [Amiloride hydrochloride dihydrate] equals 106

The recorded relative cell viability for entry COc1ccc(CNc2nc(N3CCC[C@H]3CO)ncc2C(=O)NCc2ncccn2)cc1Cl equals 97.1

The recorded relative cell viability for entry CN1C(CCl)Nc2cc(Cl)c(S(N)(=O)=O)cc2S1(=O)=O (configuration not stated) [Methyclothiazide] equals 109

The recorded relative cell viability for entry C[C@H](CS)C(=O)N1CCC[C@H]1C(=O)O equals 106

The recorded relative cell viability for entry CC=CC1=C(C(=O)O)N2C(=O)[C@@H](NC(=O)[C@H](N)c3ccc(O)cc3)[C@H]2SC1 [Cefprozil hydrate] equals 100

The recorded relative cell viability for entry Cc1cccc(CN2CCN(C(c3ccccc3)c3ccc(Cl)cc3)CC2)c1 (configuration not stated) [Meclizine 2HCl] equals 111

The recorded relative cell viability for entry O=C(O)Cc1cc(I)c(Oc2ccc(O)c(I)c2)c(I)c1 equals 101

The recorded relative cell viability for entry CC(C[N+](C)(C)C)OC(N)=O (configuration not stated) [Bethanechol chloride] equals 98.4

The recorded relative cell viability for entry O=C(O)C(=O)O.[NH-][C@@H]1CCCC[C@H]1[NH-].[Pt+2] equals 105

The recorded relative cell viability for entry CN(Cc1cnc2nc(N)nc(N)c2n1)c1ccc(C(=O)N[C@@H](CCC(=O)O)C(=O)O)cc1 [Abitrexate] equals 41.8

The recorded relative cell viability for entry CS(=O)(=O)c1ccc(C2=C(c3ccccc3)C(=O)OC2)cc1 equals 107

The recorded relative cell viability for entry Cc1cc(C)nc(NS(=O)(=O)c2ccc(N)cc2)n1 equals 105

The recorded relative cell viability for entry CC[C@]1(O)C[C@@H]2CN(CCc3c([nH]c4ccccc34)[C@@](C(=O)OC)(c3cc4c(cc3OC)N(C)[C@H]3[C@@](O)(C(=O)OC)[C@H](OC(C)=O)[C@]5(CC)C=CCN6CC[C@]43[C@@H]65)C2)C1 equals 36
